Hello, the source for this data is ChEMBL document CHEMBL1201862, in case you need it.

system: HT-29; test: NCI tumour cell line growth inhibition, 48 h
Calls of active or inactive are those of the source. No stated cut-off is given here; in the data, active = GI50 up to about 1.1 µM and inactive = higher.
Answer with one of the outcomes given here: t (active), f (inactive)

What was the test verdict on CC1CC[C@@]2(OC1)OC1C[C@H]3[C@@H]4CC=C5CC(OC6OC(CO)C(OC7OC(CO)C(O)C(OC8OCC(O)C(O)C8O)C7OC7OC(CO)C(OC8OC(C)C(OC9OC(C)C(O)C(O)C9O)C(O)C8O)C(O)C7O)C(O)C6O)CCC5(C)[C@H]4CCC3(C)C1[C@@H]2C (stereo not given in full) ?
f

What was the test verdict on N/N=c1\[nH]c2ccccc2o1 ?
f

What was the test verdict on Nc1cc[nH]c(=O)n1 ?
f

What was the test verdict on COc1cc(C)c(/C=C/C(=O)N2C(=O)OC[C@@H]2c2ccccc2)c(C)c1 ?
f

What was the test verdict on O=C(N/N=C\c1cccc2ccccc12)Nc1ccccc1 ?
f

What was the test verdict on CC[C@]1(O)C[C@H]2CN(CCc3c([nH]c4ccccc34)[C@@](C(=O)OC)(c3cc4c(cc3OC)N(C)[C@H]3[C@@](O)(C(=O)OC)[C@H](OC(C)=O)[C@]5(CC)C=CCN6CC[C@]43[C@@H]65)C2)C1 ?
t

What was the test verdict on O=C(O)Cn1cc([N+](=O)[O-])c(=O)c2ccccc21 ?
f

What was the test verdict on O=[PH](O)c1cccs1 ?
f

What was the test verdict on O=C1Nc2ccccc2S/C1=C\c1ccc(C(F)(F)F)cc1 ?
f

What was the test verdict on CCOC(=O)C=C1CCC2(CC1)OCCO2 ?
f

What was the test verdict on O=C1CN=C(c2ccccc2)c2ccncc2N1 ?
f

What was the test verdict on CCNc1nnc(CSc2nc(-c3ccccc3)c(-c3ccccc3)[nH]2)s1 ?
f

What was the test verdict on CC(C)(NO)/C(=N\O)c1ccccc1 ?
f

What was the test verdict on Cc1ncc(CO)c(/C=N/CCCCCC/N=C/c2c(CO)cnc(C)c2[O-])c1[O-].[Mg+2] ?
f

What was the test verdict on COc1cc(CNc2cnc3cc(N)ccc3n2)cc(OC)c1OC ?
f

What was the test verdict on CC(=O)Nc1ccc2[nH]c(C(=O)N3CC(CCl)c4c3cc(N)c3ccccc43)cc2c1 (stereo not given) ?
t

What was the test verdict on Cc1cc(NCCCCCCCCNc2cc(C)nc3cc(N)ccc23)c2ccc(N)cc2n1 ?
f

What was the test verdict on CN(C)CC1CCC/C(=C\c2ccc(OC(=O)/C=C/c3ccc(Cl)cc3)cc2)C1=O (stereo not given) ?
f

What was the test verdict on C=CC1(c2ccc(Br)cc2)OCCCO1 ?
f

What was the test verdict on C=CCSc1nc2c(N)ncnc2n1C1OC(CO)C(O)C1O (stereo not given) ?
f
